tested on: SK-MEL-28 melanoma; assay: NCI tumour cell line growth inhibition, 48 h
// reported TGI per item
RECORDED ENDPOINT: TGI

1. CCCCN(CCCC)C(=O)C(=O)C(C(=O)C(=O)OC)c1nc2ccccc2o1 (stereo unspecified)    > 100 µM
2. CCOC(=O)c1sc2c(c1OC(=O)c1ccc(Cl)cc1Cl)c(=O)n(-c1ccccc1)c(=S)n2-c1ccccc1    > 100 µM
3. O=C(CC(O)(C(F)(F)Cl)C(F)(F)Cl)CC(O)(C(F)(F)Cl)C(F)(F)Cl    > 10 µM
4. COc1ccc2cc(NC(=O)Nn3cnnc3)ccc2c1    > 100 µM
5. O=C1NC(=S)NC1C(Cc1ccccc1)c1ccco1 (stereo unspecified)    > 100 µM
6. COc1ccc(NS(=O)(=O)c2ccc3ncn(NS(=O)(=O)c4ccc(I)cc4)c(=O)c3c2)cc1    > 100 µM
7. CN(CC(=O)O)S(=O)(=O)c1ccc(Cl)cc1    > 100 µM
8. Cc1ccc([N+](=O)[O-])cc1S(=O)(=O)Nc1ccc(C(=O)/C=C/c2ccccc2)cc1    49.6 µM
9. O=C1CCN(CCC(F)(F)C(F)(F)C(F)(F)C(F)(F)F)C(=S)N1    > 100 µM
10. Fc1ccc(-c2nn3c(COc4ccccc4Cl)nnc3s2)cc1Oc1ccccc1    > 100 µM
11. O=C(O)[C@@]1(Cc2ccc(O)cc2)C[C@@H]2Cc3ccccc3N2N1    > 100 µM
12. N#CC(NNC(=O)Cc1ccccc1)c1ccc(O)cc1 (stereo unspecified)    > 100 µM
13. Cc1c(/C=N/NC(=S)Nc2ccc([N+](=O)[O-])cc2)c(=O)n(-c2ccccc2)n1C    > 100 µM
14. CCN1CCC(O)(/C=C/c2cccc(C)c2)C(C(=O)/C=C/c2cccc(C)c2)C1 (stereo unspecified)    4.49 µM
15. O=C(O)c1cc(C(=O)C(=O)c2cc(C(=O)O)c(O)c3ccccc23)c2ccccc2c1O    > 100 µM
16. Cc1cc(S(=O)(=O)Nc2n[nH]c(-c3ccc(Cl)cc3)c2C#N)c(S)cc1Cl    > 100 µM
17. CCOc1ccc(N=C2NC(=O)C(CC(=O)Nc3ccc(Cl)cc3Cl)S2)cc1 (stereo unspecified)    > 100 µM
18. COc1ccc(-c2c(C(C)=O)c(C)n(C3OC(COC(C)=O)C(OC(C)=O)C(OC(C)=O)C3OC(C)=O)c(=S)c2C#N)cc1 (stereo unspecified)    > 100 µM
19. CO[C@@H]1C[C@H]2[C@@H]3CC[C@H]([C@@H](C)COC(C)=O)[C@@]3(C)CC[C@@H]2[C@@]2(C)CC[C@H]3C[C@]312    31.9 µM
20. O=[N+]([O-])c1cccc(C=NC23CC4CC(CC(C4)C2)C3)c1    > 100 µM
21. CC[C@H](C)[C@H](NC(=O)[C@H](Cc1ccc(O)cc1)NCC(F)(F)F)C(=O)OC(C)(C)C    19.1 µM
22. CC1(C)OP(=O)(c2ccccc2)C=C1Br (stereo unspecified)    > 100 µM
23. COc1ccc(-c2nnc3c4ccccc4sn23)cc1    > 100 µM
24. CC1=CC=C2C(C)(C)CC[C@@H]3OC(=O)[C@H]1[C@]23C    > 100 µM
25. CN1CCC2(CC1)C(=O)N(NC(N)=O)C(=O)C2c1ccccc1 (stereo unspecified)    > 100 µM
26. COc1cc(C)cc(C(=O)OCc2ccccc2)c1C1=C(Cl)C(=O)C(Cl)=CC1=O    > 10 µM
27. S=C1NC(c2ccccc2)=NC(Cc2ccccc2)(c2ccccc2)N1c1ccccc1 (stereo unspecified)    > 100 µM
28. Cc1ccc(C)n1-n1c(Cc2ccc(Cl)cc2)n[nH]c1=O    > 100 µM
29. CC12OC(C(=O)C13CC3)C1C(=O)c3cccc(O)c3C(=O)C12 (stereo unspecified)    > 61.4 µM
30. Cc1cccc2c1NC(=O)[C@@H](NC(=O)[C@H](CCC(F)(F)F)[C@H](CCC(F)(F)F)C(N)=O)N=C2c1cccc(F)c1    > 100 µM
31. COc1cc(Br)cc2c1O[C@H]1C(=O)CC3CC21CCN3C (stereo partly specified)    > 100 µM
32. Cc1cc2c(=O)cc(-c3ccc(C(=O)O)cc3)oc2c(C(N)=O)c1C    > 100 µM
33. Cc1cc2c(=O)cc(-c3ccc(O)cc3)oc2c(C(=O)O)c1C    > 100 µM
34. CN(NC(=O)c1ccc(Cl)cc1)C1=NCCCCN1    > 100 µM
35. Cc1ccc(C)c(N2C(=O)C(=O)C(c3nc4ccccc4s3)C(=O)C2=O)c1    > 100 µM
36. Clc1ccc(Nc2ncnc3ccccc23)cc1    > 100 µM
37. CCOC(=O)c1c2c(n(Cc3ccccc3)c1C)-c1nc[nH]c1C(=O)C2=O    34.1 µM
38. CCCCN(CCCC)C1(c2cc3ccccc3s2)CCCCC1    34.1 µM
39. Nc1ccc(-c2nnc(-c3c(Cl)c(Cl)c(Cl)c(Cl)c3-c3nc4ccc(C(=O)c5ccccc5)cc4[nH]3)o2)cc1    > 100 µM
40. N#Cc1nc(/C=C/c2cccs2)oc1N    > 100 µM
41. Oc1c(Nc2ccccc2)cc2c3c1N=NC=3CCN=2    > 100 µM
